Source listed as patent US8003649B2.

Listed next: entries and their corresponding DC50.
Biological target: Androgen Receptor (AR) (Homo sapiens, UniProt P10275, T878A)
Construct: cell based immuno-fluorescence assay using the LNCaP prostate epithelial cell line; endogenous in cells; host or cells: LNCaP clone FGC (ATCC CRL-1740)
Sequence (P10275 1-920 T878A): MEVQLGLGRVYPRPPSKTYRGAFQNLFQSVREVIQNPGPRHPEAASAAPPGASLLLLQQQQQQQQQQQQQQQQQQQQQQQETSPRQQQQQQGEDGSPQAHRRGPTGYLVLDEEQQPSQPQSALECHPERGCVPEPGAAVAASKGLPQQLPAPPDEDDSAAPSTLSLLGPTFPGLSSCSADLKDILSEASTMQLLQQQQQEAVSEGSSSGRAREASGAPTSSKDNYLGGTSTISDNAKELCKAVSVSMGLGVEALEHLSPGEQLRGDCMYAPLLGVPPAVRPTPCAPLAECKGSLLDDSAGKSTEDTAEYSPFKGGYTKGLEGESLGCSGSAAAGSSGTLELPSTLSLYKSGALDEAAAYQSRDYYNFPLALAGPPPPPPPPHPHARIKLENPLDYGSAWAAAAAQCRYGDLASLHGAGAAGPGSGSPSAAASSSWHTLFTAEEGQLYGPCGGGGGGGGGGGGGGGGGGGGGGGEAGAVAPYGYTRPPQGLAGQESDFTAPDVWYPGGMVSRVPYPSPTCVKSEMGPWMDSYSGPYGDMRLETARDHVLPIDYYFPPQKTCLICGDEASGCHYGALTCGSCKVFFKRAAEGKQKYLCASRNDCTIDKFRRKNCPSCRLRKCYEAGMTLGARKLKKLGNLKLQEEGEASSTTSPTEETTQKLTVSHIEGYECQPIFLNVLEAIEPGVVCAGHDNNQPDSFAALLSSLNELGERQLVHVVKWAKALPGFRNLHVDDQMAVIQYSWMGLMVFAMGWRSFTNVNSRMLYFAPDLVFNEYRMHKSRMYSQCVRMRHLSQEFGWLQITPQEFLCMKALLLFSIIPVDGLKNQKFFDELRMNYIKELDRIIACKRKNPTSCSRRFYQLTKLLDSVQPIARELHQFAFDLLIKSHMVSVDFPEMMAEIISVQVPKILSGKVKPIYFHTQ
Test: LNCaP Androgen Receptor Down-regulation Cell Assay (immunofluorescence end point)
Type: cell-based
Conditions: LNCaP prostate carcinoma cells, compound incubation 20-22 hours, 50% reduction of the AR signal; read-out: Androgen Receptor Down-regulation Assay (a) IC50/μM
endpoint: DC50 (µM)

smilescode=COc1ccccc1CN1CCN(c2ccc3nnc(C(F)(F)F)n3n2)CC1 unitstext=µM boundtype== datavalue=2.3
smilescode=Fc1cccc(CN2CC=C(c3ccc4nnc(C(F)(F)F)n4n3)CC2)c1 unitstext=µM boundtype== datavalue=1.8
smilescode=FC(F)(F)c1nnc2ccc(N3CCC(Oc4ccc(Cl)cc4)CC3)nn12 unitstext=µM boundtype== datavalue=0.69
smilescode=O=C(NCc1cocn1)c1cccc(OC2CCN(c3ccc4nnc(C(F)(F)F)n4n3)CC2)c1 unitstext=µM boundtype== datavalue=7.9
smilescode=N#Cc1ccccc1OC1CCN(c2ccc3nnc(C(F)(F)F)n3n2)CC1 unitstext=µM boundtype== datavalue=2.6
smilescode=Fc1cc(CN2CCN(c3ccc4nnc(C(F)(F)F)n4n3)CC2)cc(C(F)(F)F)c1 unitstext=µM boundtype=> datavalue=3.1

###

# DC50 per record follows
Target: Androgen Receptor (AR) (Homo sapiens, UniProt P10275, T878A)
Construct: cell based immuno-fluorescence assay using the LNCaP prostate epithelial cell line; endogenous in cells; host or cells: LNCaP clone FGC (ATCC CRL-1740)
Assay: LNCaP Androgen Receptor Down-regulation Cell Assay (immunofluorescence end point)
Assay type: cell-based
Conditions: LNCaP prostate carcinoma cells, compound incubation 20-22 hours, 50% reduction of the AR signal; read-out: Androgen Receptor Down-regulation Assay (a) IC50/μM
Experimental: The ability of compounds to reduce Androgen Receptor (AR) numbers was assessed in a cell based immuno-fluorescence assay using the LNCaP prostate epithelial cell line. a) LNCaP Androgen Receptor Down-regulation Cell Assay […] Immunostaining was performed at room temperature. […] Then 50 μl of PBST was added to each well and plates were covered with a black plate seal and stored at 4° C. before being read. Plates were read within six hours of completing the immunostaining. […]
endpoint: DC50 (µM)

smilescode=FC(F)(F)c1nnc2ccc(N3CCN(c4ccc(OCc5ccon5)cc4)CC3)nn12 boundtype=> datavalue=12
smilescode=OC1(Cc2ccccc2)CCN(c2ccc3nnc(C(F)(F)F)n3n2)CC1 boundtype== datavalue=2.2
smilescode=N#Cc1ccc(OC2CCN(c3ccc4nnc(C(F)(F)F)n4n3)CC2)cn1 boundtype== datavalue=6.3
smilescode=CN(Cc1cc(F)cc(F)c1)C1CCN(c2ccc3nnc(C(F)(F)F)n3n2)CC1 boundtype== datavalue=2.1

###

target: Androgen Receptor (AR) (Homo sapiens, UniProt P10275, T878A); construct: cell based immuno-fluorescence assay using the LNCaP prostate epithelial cell line; endogenous in cells; host or cells: LNCaP clone FGC (ATCC CRL-1740); test: LNCaP Androgen Receptor Down-regulation Cell Assay (immunofluorescence end point); format: cell-based; conditions: LNCaP prostate carcinoma cells, compound incubation 20-22 hours, 50% reduction of the AR signal; read-out: Androgen Receptor Down-regulation Assay (a) IC50/μM
endpoint: DC50

compound="O=S(=O)(c1cccc(F)c1)N1CCCN(c2ccc3nnc(C(F)(F)F)n3n2)CC1 [Example 456]" experimentaltarget="Androgen Receptor (AR) (Homo sapiens, UniProt P10275, T878A)" datavalue="21 µM"
compound="OC1(c2ccccc2Cl)CCN(c2ccc3nnc(C(F)(F)F)n3n2)CC1 [Example 315]" experimentaltarget="Androgen Receptor (AR) (Homo sapiens, UniProt P10275, T878A)" datavalue="2 µM"
compound="CC1CN(c2ccc3nnc(C(F)(F)F)n3n2)C(C)CN1Cc1ccc(F)c(C#N)c1 (centres unmarked) [Example 222]" experimentaltarget="Androgen Receptor (AR) (Homo sapiens, UniProt P10275, T878A)" datavalue="2.6 µM"
compound="FC(F)(F)c1cccc(O[C@@H]2CCN(c3ccc4nnc(C(F)(F)F)n4n3)C2)c1 [Example 583]" experimentaltarget="Androgen Receptor (AR) (Homo sapiens, UniProt P10275, T878A)" datavalue="4.1 µM"
compound="FC(F)(F)c1nnc2ccc(N3CCC(c4c[nH]c5ccncc45)CC3)nn12 [Example 326]" experimentaltarget="Androgen Receptor (AR) (Homo sapiens, UniProt P10275, T878A)" datavalue="2 µM"
compound="CS(=O)(=O)c1ccccc1CN1CCCN(c2ccc3nnc(C(F)(F)F)n3n2)CC1 [Example 164]" experimentaltarget="Androgen Receptor (AR) (Homo sapiens, UniProt P10275, T878A)" datavalue="1.7 µM"
compound="Fc1ccc(F)c(CN2CCN(c3ccc4nnc(C(F)F)n4n3)CC2)c1 [Example 259]" experimentaltarget="Androgen Receptor (AR) (Homo sapiens, UniProt P10275, T878A)" datavalue="4.8 µM"
compound="CN1CCN(CCOc2ccc(OC3CCN(c4ccc5nnc(C(F)(F)F)n5n4)CC3)cc2)CC1 [Example 440]" experimentaltarget="Androgen Receptor (AR) (Homo sapiens, UniProt P10275, T878A)" datavalue="2.3 µM"
compound="FC(F)(F)c1nnc2ccc(N3CCN(c4c(Cl)cncc4Cl)CC3)nn12 [Example 19]" experimentaltarget="Androgen Receptor (AR) (Homo sapiens, UniProt P10275, T878A)" datavalue="0.52 µM"
compound="FC(F)(F)c1nnc2ccc(N3C[C@@H]4[C@H](C3)[C@H]4NCc3cccc(Cl)c3)nn12 [Example 555]" experimentaltarget="Androgen Receptor (AR) (Homo sapiens, UniProt P10275, T878A)" datavalue="1.4 µM"
compound="Fc1cc(F)c(F)c(CN2CCN(c3ccc4nnc(C(F)(F)F)n4n3)CC2)c1 [Example 763]" experimentaltarget="Androgen Receptor (AR) (Homo sapiens, UniProt P10275, T878A)" datavalue="> 9.8 µM"

###

target: Androgen Receptor (AR) (Homo sapiens, UniProt P10275, T878A); construct: cell based immuno-fluorescence assay using the LNCaP prostate epithelial cell line; endogenous in cells; host or cells: LNCaP clone FGC (ATCC CRL-1740); experiment: LNCaP Androgen Receptor Down-regulation Cell Assay (immunofluorescence end point); type: cell-based; conditions: LNCaP prostate carcinoma cells, compound incubation 20-22 hours, 50% reduction of the AR signal; read-out: Androgen Receptor Down-regulation Assay (a) IC50/μM
endpoint: DC50

compound=Fc1ccc(OC2CN(c3ccc4nnc(C(F)(F)F)n4n3)C2)cc1 endpoint=DC50 datavalue="> 14 µM"
compound=C[C@@H]1CN(c2ccc3nnc(C(F)(F)F)n3n2)CCN1Cc1cc(F)cc(F)c1 endpoint=DC50 datavalue="> 16 µM"
compound=COc1ccc(O[C@@H]2CCN(c3ccc4nnc(C(F)(F)F)n4n3)C2)cc1 endpoint=DC50 datavalue="2.4 µM"
compound="COc1cccc(CN2CC3CN(c4ccc5nnc(C(F)(F)F)n5n4)CC3C2)c1 (centres unmarked)" endpoint=DC50 datavalue="2.4 µM"
compound=O=C(c1ccc(C2CCN(c3ccc4nnc(C(F)(F)F)n4n3)CC2)cc1)N1CC[C@H](O)C1 endpoint=DC50 datavalue="3.2 µM"
compound=CCOc1ccc(CN2CCN(c3ccc4nnc(C(F)(F)F)n4n3)CC2)cc1 endpoint=DC50 datavalue="2.3 µM"
compound=Fc1cccc(O[C@@H]2CCN(c3ccc4nnc(C(F)(F)F)n4n3)C2)c1 endpoint=DC50 datavalue="1.5 µM"
compound=COCCOCC1CCN(c2ccc3nnc(C(F)(F)F)n3n2)CC1 endpoint=DC50 datavalue="2.1 µM"
compound=FC(F)(F)c1nnc2ccc(N3CCC(COc4cccc(Cl)n4)CC3)nn12 endpoint=DC50 datavalue="2 µM"
compound="FC(F)(F)c1nnc2ccc(N3CCCC(COc4ccccc4)C3)nn12 (centres unmarked)" endpoint=DC50 datavalue="1.4 µM"
compound="FC(F)(F)c1nnc2ccc(N3CC4CN(Cc5ccc(Cl)cc5)CC4C3)nn12 (centres unmarked)" endpoint=DC50 datavalue="1.5 µM"
compound=FC(F)(F)c1nnc2ccc(N3CCC(Oc4ccc(OCc5ccon5)cc4)CC3)nn12 endpoint=DC50 datavalue="1.6 µM"
compound=COCC(=O)Nc1ccc(C2CCN(c3ccc4nnc(C(F)(F)F)n4n3)CC2)cc1 endpoint=DC50 datavalue="3.6 µM"
compound=FC(F)(F)c1nnc2ccc(N3CCC(COc4ccc(Cl)cc4)CC3)nn12 endpoint=DC50 datavalue="4.6 µM"
compound=COCCNC(=O)c1ccc2[nH]cc(C3CCN(c4ccc5nnc(C(F)(F)F)n5n4)CC3)c2c1 endpoint=DC50 datavalue="2.4 µM"
compound=FC(F)(F)c1nnc2ccc(N3CCN(Cc4ccnc5ccccc45)CC3)nn12 endpoint=DC50 datavalue="1.4 µM"
compound=FC(F)(F)c1nnc2ccc(N3CCC(c4ccncc4)CC3)nn12 endpoint=DC50 datavalue="1.5 µM"
